# Target Desc: ~100 representative kinases (Homo sapiens)
# Construct: Recombinant protein kinase domains with a concentration of 2 μM
# Sequence (Q15418 whole entry, the tested form may be a part): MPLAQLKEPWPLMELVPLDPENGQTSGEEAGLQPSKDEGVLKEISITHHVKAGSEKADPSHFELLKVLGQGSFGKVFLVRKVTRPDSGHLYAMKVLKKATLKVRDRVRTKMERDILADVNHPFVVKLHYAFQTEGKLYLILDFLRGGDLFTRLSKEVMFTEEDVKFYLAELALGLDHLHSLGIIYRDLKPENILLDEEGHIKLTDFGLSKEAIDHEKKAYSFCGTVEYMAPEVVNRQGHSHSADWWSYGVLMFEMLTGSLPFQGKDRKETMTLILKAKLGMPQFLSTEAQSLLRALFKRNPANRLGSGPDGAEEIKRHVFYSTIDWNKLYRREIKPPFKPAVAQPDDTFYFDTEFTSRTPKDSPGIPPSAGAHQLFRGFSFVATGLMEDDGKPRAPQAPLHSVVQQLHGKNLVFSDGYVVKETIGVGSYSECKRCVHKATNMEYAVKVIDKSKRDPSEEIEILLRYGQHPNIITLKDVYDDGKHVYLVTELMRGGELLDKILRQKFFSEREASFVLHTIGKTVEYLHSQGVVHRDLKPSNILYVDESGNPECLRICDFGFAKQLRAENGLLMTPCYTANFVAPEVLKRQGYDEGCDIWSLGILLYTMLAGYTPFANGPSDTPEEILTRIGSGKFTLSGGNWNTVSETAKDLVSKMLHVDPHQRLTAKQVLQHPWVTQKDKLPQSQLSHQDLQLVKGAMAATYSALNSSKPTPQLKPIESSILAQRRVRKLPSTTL
# Test Name: DSF 100 kinase selectivity screen;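 further: compound tested at 20 µM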
# Assay type: binding
# Experimental Setup: Protein RPS6KA1; DSF; average of three replicates
Decide by dTm: equal to or exceeding 0.3 K means rule met, less means rule not met.

{"Query Smiles": "Cc1cc(F)ccc1NC(=O)C1(C(=O)Nc2cccc(-c3c[nH]c4ncnc(N5CCOCC5)c34)c2)CC1", "Target Desc": "~100 representative kinases (Homo sapiens)", "Class Name": "rule not met"}
{"Query Smiles": "O=C(Nc1cccc(-c2c[nH]c3ncnc(N4CCOCC4)c23)c1)C1(C(=O)Nc2cccc3c2CCC3)CC1", "Target Desc": "~100 representative kinases (Homo sapiens)", "Class Name": "rule met"}
{"Query Smiles": "O=C(Nc1cccc(-c2c[nH]c3ncnc(N4CCOCC4)c23)c1)C1(C(=O)Nc2ccc(F)c(Br)c2)CC1", "Target Desc": "~100 representative kinases (Homo sapiens)", "Class Name": "rule not met"}
{"Query Smiles": "CCc1ccc(NC(=O)C2(C(=O)Nc3cccc(-c4c[nH]c5ncnc(N6CCOCC6)c45)c3)CC2)cc1", "Target Desc": "~100 representative kinases (Homo sapiens)", "Class Name": "rule not met"}
{"Query Smiles": "COc1cc(S(C)(=O)=O)ccc1Nc1nc(N(C)C)c2c(Cl)c[nH]c2n1", "Target Desc": "~100 representative kinases (Homo sapiens)", "Class Name": "rule met"}

Reported dTm reaches at least 0.3 K for `O=C(Nc1cccc(-c2c[nH]c3ncnc(N4CCOCC4)c23)c1)C1(C(=O)Nc2ccc(F)cc2F)CC1` ?
rule not met

Same again, this time with `CCNc1nc(Nc2cc(F)c(C(=O)N3CCOCC3)cc2OC)ncc1C(F)(F)F`
rule met

Source of measurements: paper PMC12136037
